Attribute: times more resistant to solvolysis than DK-1
Procedure Summary: 19F NMR solvolytic stability of difluoro-dioxaborinins in water/DMSO
Format: physicochemical
Conditions Used: 50 M H2O
Quick one: just the number, no unit, thanks!

# input Requested field: times more resistant to solvolysis than DK-1. Item: CC1=[O+][B-](F)(F)OC(C)=C1C [DK-2]
# output 6.2

# input Same question for CC1=C2CCCCC2=[O+][B-](F)(F)O1 [DK-15] please.
# output 2.5

# input Same question for CCC1=C(C)O[B-](F)(F)[O+]=C1C [DK-3] please.
# output 5.6

Now for the compound whose times more resistant to solvolysis than DK-1 we want.
# input Requested field: times more resistant to solvolysis than DK-1. Item: CCOC(=O)CCC1=C(C)O[B-](F)(F)[O+]=C1C [DK-6]
# output 1.9
